- Test system: Helicobacter pylori
- run-description: Antibacterial activity against Helicobacter pylori strain 2 assessed as diameter of growth inhibition zone at 16 ug/disk after 3-5 days by filter paper disk diffusion method
- Format: functional
- conditions-used: read-out: DIZ

molecule | zone of inhibition at 16 µg/disc
Cn1c(/C=C2\S/C(=N/c3nc4ccccc4s3)NC2=O)ccc1[N+](=O)[O-] | 29 mm
O=C1N/C(=N\c2nc(-c3ccccc3)cs2)S/C1=C\c1ccc([N+](=O)[O-])o1 | 12 mm
COc1ccc(-c2csc(/N=C3\NC(=O)/C(=C/c4ccc([N+](=O)[O-])s4)S3)n2)cc1 | 32 mm
Cn1c(/C=C2\S/C(=N/c3nc(-c4ccccc4)cs3)NC2=O)ccc1[N+](=O)[O-] | 6 mm
O=C1N/C(=N\c2nccs2)S/C1=C\c1ccc([N+](=O)[O-])o1 | > 50 mm
COc1ccc(-c2csc(/N=C3\NC(=O)/C(=C/c4ccc([N+](=O)[O-])o4)S3)n2)cc1 | 17 mm
COc1ccc(-c2csc(/N=C3\NC(=O)/C(=C/C4C(=O)Nc5ccccc54)S3)n2)cc1 (stereo not given) | 6 mm
Cc1ncc([N+](=O)[O-])n1CCO | 14 mm
O=C1N/C(=N\c2nc3ccccc3s2)S/C1=C\C1C(=O)Nc2ccccc21 (stereo not given) | 13 mm
Cn1c(/C=C2\S/C(=N/c3nccs3)NC2=O)ccc1[N+](=O)[O-] | > 50 mm
